target: UniProt P32245; experiment: Intracellular cAMP levels in live cells, MC3R selectivity relative to MC4R; format: cell-based; conditions: cAMP assays in human MC3R and human MC4R stable cell lines
Sequence (P32245 whole entry): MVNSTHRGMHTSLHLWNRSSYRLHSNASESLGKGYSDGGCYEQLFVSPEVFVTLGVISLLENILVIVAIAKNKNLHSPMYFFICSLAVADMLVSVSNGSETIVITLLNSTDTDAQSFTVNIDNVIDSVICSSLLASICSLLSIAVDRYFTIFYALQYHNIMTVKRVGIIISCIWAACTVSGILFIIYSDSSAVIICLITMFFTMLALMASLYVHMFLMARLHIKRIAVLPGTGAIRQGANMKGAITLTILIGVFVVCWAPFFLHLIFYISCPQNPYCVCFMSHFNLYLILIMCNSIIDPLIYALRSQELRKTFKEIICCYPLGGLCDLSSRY
Non-standard residues stand in square brackets, D forms with d. Residues, ends and D or L forms follow the SMILES beside them. Nle = CCCC[C@H](N)C(=O)O
MEASURED_ENDPOINT: MC3R selectivity (relative to MC4R)
Field format: numeric only.

Asked: What value of MC3R selectivity (relative to MC4R) has been recorded for this entry: CC(=O)N[C@H](C(=O)NCC(=O)N[C@@H](Cc1c[nH]cn1)C(=O)N[C@H](Cc1ccccc1)C(=O)N[C@@H](CCCNC(=N)N)C(=O)N[C@H](Cc1c[nH]c2ccccc12)C(=O)N[C@@H](CC(=O)O)C(N)=O)[C@@H](C)O [CTX-1113, Thr-Gly-His-D-Phe-Arg-D-Trp-Asp] (Ac-TGH[dF]R[dW]D-NH2)
Given back: 0.4

# ---- query compound ----
Asked: Please look up its MC3R selectivity (relative to MC4R): CCCC[C@H](NC(C)=O)C(=O)N[C@H](C)C(=O)N[C@@H](Cc1c[nH]cn1)C(=O)N[C@@H](Cc1ccccc1)C(=O)N[C@@H](CCCNC(=N)N)C(=O)N[C@H](Cc1c[nH]c2ccccc12)C(=O)N[C@@H](CC(=O)O)C(=O)N[C@@H](CCCNC(=N)N)C(=O)N[C@H](Cc1ccccc1)C(=O)NCC(=O)O [CTX-1145] (Ac-[Nle][dA]HFR[dW]DR[dF]G-OH)
Given back: 535

----------
// values below are reported pEC50
target: human MC3R (Homo sapiens, UniProt P41968); experiment: Intracellular cAMP levels in live cells, MC3R agonist activity; conditions: cAMP split-luciferase reporter cell line stably expressing human MC3R; direct agonist effect, measurement window 1
Sequence (P41968 whole entry): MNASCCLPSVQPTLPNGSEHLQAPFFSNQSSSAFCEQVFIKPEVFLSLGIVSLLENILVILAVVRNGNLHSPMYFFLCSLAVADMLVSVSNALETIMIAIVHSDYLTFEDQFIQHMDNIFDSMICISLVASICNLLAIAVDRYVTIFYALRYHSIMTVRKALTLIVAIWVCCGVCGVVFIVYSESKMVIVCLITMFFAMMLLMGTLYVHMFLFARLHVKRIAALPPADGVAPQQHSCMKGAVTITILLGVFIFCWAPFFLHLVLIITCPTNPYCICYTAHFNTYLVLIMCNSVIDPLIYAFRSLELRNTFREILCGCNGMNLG
Non-standard residues stand in square brackets, D forms with d. Residues, ends and D or L forms follow the SMILES beside them. NMeY = CN[C@@H](Cc1ccc(O)cc1)C(=O)O; Nle = CCCC[C@H](N)C(=O)O; dAbu = CC[C@@H](N)C(=O)O
Schema: pEC50 number; meaning minus log10 of the concentration expressed in molar units.

Asked: Could you share which pEC50 value was measured for CCCC[C@H](NC(=O)[C@@H](NC(=O)[C@@H](N)Cc1ccc(O)cc1)C(C)C)C(=O)N[C@H](CC)C(=O)N[C@@H](Cc1c[nH]cn1)C(=O)N[C@@H](Cc1ccccc1)C(=O)N[C@@H](CCCNC(=N)N)C(=O)N[C@H](Cc1c[nH]c2ccccc12)C(=O)N[C@@H](CC(=O)O)C(N)=O [CTX-1131, Tyr-Val-Nle-D-Abu-His-Phe-Arg-D-Trp-Asp] (H-YV[Nle][dAbu]HFR[dW]D-NH2) ?
Given back: 8.18

Asked: Same question for CCCC[C@H](NC(=O)[C@@H](NC(=O)[C@H](Cc1ccc(O)cc1)NC)C(C)C)C(=O)N[C@H](C)C(=O)N[C@@H](Cc1c[nH]cn1)C(=O)N[C@@H](Cc1ccccc1)C(=O)N[C@@H](CCCNC(=N)N)C(=O)N[C@H](Cc1c[nH]c2ccccc12)C(=O)N[C@@H](CC(=O)O)C(=O)N[C@@H](CCCNC(=N)N)C(=O)N[C@@H](Cc1ccccc1)C(=O)NCC(=O)O [CTX-1124] (H-[NMeY]V[Nle][dA]HFR[dW]DRFG-OH) please.
Given back: 8.77

Asked: Note, next up: CCCC[C@H](NC(C)=O)C(=O)N[C@H](C)C(=O)N[C@@H](Cc1c[nH]cn1)C(=O)N[C@@H](Cc1ccccc1)C(=O)N[C@@H](CCCNC(=N)N)C(=O)N[C@H](Cc1c[nH]c2ccccc12)C(=O)NCC(=O)N[C@@H](CCCCN)C(=O)N1CCC[C@H]1C(=O)N[C@H](C(N)=O)C(C)C [CTX-1164] (Ac-[Nle][dA]HFR[dW]GKPV-NH2)
Given back: 8.82

Continue with the molecule presented below.
Asked: Please report the recorded pEC50 for CSCC[C@H](NC(=O)[C@@H](N)C(C)C)C(=O)NCC(=O)N[C@@H](Cc1c[nH]cn1)C(=O)N[C@@H](Cc1ccccc1)C(=O)N[C@@H](CCCNC(=N)N)C(=O)N[C@H](Cc1c[nH]c2ccccc12)C(=O)N[C@@H](CC(=O)O)C(=O)N[C@@H](CCCNC(=N)N)C(=O)N[C@@H](Cc1ccccc1)C(=O)NCC(=O)O [CTX-1546] (H-VMGHFR[dW]DRFG-OH) .
Given back: 8.77
